Please respond with reported EPSA for every item in the list.
- test-details: physchem
Give the value, in units of A^2, as a plain number.

Lab book: EPSA of "CC(=O)N[C@@H](CCCCN=[N+]=[N-])C(=O)N[C@@H](CO)C(=O)NCC(=O)N[C@@H](CO)C(=O)N[C@@H](CC(C)C)C(=O)N[C@H](C(=O)N[C@@H](Cc1ccccc1)C(=O)N[C@]1(C)CCCCCCC=CCCC[C@@](C)(C(=O)N[C@@H](CO)C(=O)N[C@@H](C)C(=O)N[C@@H](C)C(N)=O)NC(=O)[C@H](CC2CCC2)NC(=O)[C@H](CCC(N)=O)NC(=O)[C@H](C)NC(=O)[C@H](Cc2c[nH]c3ccccc23)NC(=O)[C@H](Cc2ccc(O)cc2)NC(=O)[C@H](CCC(=O)O)NC1=O)[C@@H](C)O" noted as 227

For record "CC(=O)N(C)CC(=O)N(C)CC(=O)N(C)CC(=O)N(C)CC(=O)N[C@@H](CC(C)C)C(=O)N[C@H](C(=O)N[C@@H](Cc1ccccc1)C(=O)N[C@]1(C)CCCCCCC=CCCC[C@@](C)(C(=O)N[C@@H](CO)C(=O)N[C@@H](C)C(=O)N[C@@H](C)C(N)=O)NC(=O)[C@H](CC2CCC2)NC(=O)[C@H](CCC(N)=O)NC(=O)[C@H](C)NC(=O)[C@H](Cc2c[nH]c3ccccc23)NC(=O)[C@H](Cc2ccc(O)cc2)NC(=O)[C@H](CCC(=O)O)NC1=O)[C@@H](C)O" the listed EPSA is 212

----------
- test-details: Experimental LogD (partition coefficient)
- measurement-parameters: not stated, Partition Coeff LogD
Positions of bridges follow the written chain, without caps; N, C: chain ends. Non-standard residues stand in square brackets, D forms with d. Residues, ends and D or L forms follow the SMILES beside them. Lys(N3) = [N-]=[N+]=NCCCC[C@H](N)C(=O)O; R8 = C=CCCCCCC[C@@](C)(N)C(=O)O; Cba = N[C@@H](CC1CCC1)C(=O)O; S5 = C=CCCC[C@](C)(N)C(=O)O; βAla = NCCC(=O)O; Sar = CNCC(=O)O
I'd appreciate it if you could supply logD values for the items below.
Keep it simple and answer with nothing but the number.

According to the records, this compound CC(=O)N[C@@H](Cc1c[nH]cn1)C(=O)N[C@H](C(=O)N[C@@H](Cc1ccccc1)C(=O)N[C@]1(C)CCCCCCC=CCCC[C@@](C)(C(=O)N[C@@H](CO)C(=O)N[C@@H](C)C(=O)N[C@@H](C)C(N)=O)NC(=O)[C@H](CC2CCC2)NC(=O)[C@H](CC(C)C)NC(=O)[C@H](CCC(N)=O)NC(=O)[C@H](Cc2c[nH]c3ccccc23)NC(=O)[C@H](Cc2ccc(O)cc2)NC(=O)[C@H](CCC(=O)O)NC1=O)[C@@H](C)O [MP-197, ATSP-7041 (L1H)] (Ac-HTF[R8]EYWQL[Cba][S5]SAA-NH2; staple 4-11) displays logD of 2.56

The value of logD measured for the compound CC(=O)N[C@@H](CCCCN=[N+]=[N-])C(=O)NCCC(=O)N[C@@H](CC(C)C)C(=O)N[C@H](C(=O)N[C@@H](Cc1ccccc1)C(=O)N[C@]1(C)CCCCCCC=CCCC[C@@](C)(C(=O)N[C@@H](CO)C(=O)N[C@@H](C)C(=O)N[C@@H](C)C(N)=O)NC(=O)[C@H](CC2CCC2)NC(=O)[C@H](CCCCN)NC(=O)[C@H](C)NC(=O)[C@H](Cc2c[nH]c3ccccc23)NC(=O)[C@H](Cc2ccc(O)cc2)NC(=O)[C@H](CCC(=O)O)NC1=O)[C@@H](C)O [MP-550, AZIDE-ATSP-7041 (Q9K)] turned out to be 3.08

Reported logD of "CC(=O)N[C@@H](CCCCN=[N+]=[N-])C(=O)NCCC(=O)N[C@@H](CC(C)C)C(=O)N[C@H](C(=O)N[C@@H](Cc1ccccc1)C(=O)N[C@@]1(C)CCCCCCC=CCCC[C@@](C)(C(=O)N[C@@H](CO)C(=O)N[C@@H](C)C(=O)N[C@@H](C)C(N)=O)NC(=O)[C@H](CC2CCC2)NC(=O)[C@H](CCC(N)=O)N(C)C(=O)[C@H](C)NC(=O)[C@H](Cc2c[nH]c3ccccc23)NC(=O)[C@H](Cc2ccc(O)cc2)NC(=O)[C@H](CCC(=O)O)NC1=O)[C@@H](C)O" : 2.5

The compound listed as CC(=O)N[C@@H](CCCCN=[N+]=[N-])C(=O)NCCC(=O)N1CCC[C@H]1C(=O)N[C@H](C(=O)N[C@@H](Cc1ccccc1)C(=O)N[C@]1(C)CCCCCCC=CCCC[C@@](C)(C(=O)N[C@@H](CO)C(=O)N[C@@H](C)C(=O)N[C@@H](C)C(N)=O)NC(=O)[C@H](CC2CCC2)NC(=O)[C@H](CCC(N)=O)NC(=O)[C@H](C)NC(=O)[C@H](Cc2c[nH]c3ccccc23)NC(=O)[C@H](Cc2ccc(O)cc2)NC(=O)[C@H](CCC(=O)O)NC1=O)[C@@H](C)O [MP-259] (Ac-[Lys(N3)][βAla]PTF[R8]EYWAQ[Cba][S5]SAA-NH2; staple 6-13) shows logD equal to 2.67

CC(=O)N[C@@H](CC(C)C)C(=O)N[C@@H](CCCNC(=N)N)C(=O)N[C@@H](Cc1ccccc1)C(=O)N[C@]1(C)CCCCCCC=CCCC[C@@](C)(C(=O)N[C@@H](CO)C(=O)N[C@@H](C)C(=O)N[C@@H](C)C(N)=O)NC(=O)[C@H](CC2CCC2)NC(=O)[C@H](CC(C)C)NC(=O)[C@H](CCC(N)=O)NC(=O)[C@H](Cc2c[nH]c3ccccc23)NC(=O)[C@H](Cc2ccc(O)cc2)NC(=O)[C@H](CCC(=O)O)NC1=O [MP-1192] (Ac-LRF[R8]EYWQL[Cba][S5]SAA-NH2; staple 4-11) yielded logD of 2.79

// recorded logD for CC(=O)N(C)CC(=O)N[C@@H](CCCCN=[N+]=[N-])C(=O)NCCC(=O)N[C@@H](C)C(=O)N[C@H](C(=O)N[C@@H](Cc1ccccc1)C(=O)N[C@]1(C)CCCCCCC=CCCC[C@@](C)(C(=O)N[C@@H](C)C(=O)N[C@@H](C)C(=O)N[C@@H](C)C(N)=O)NC(=O)[C@H](CC2CCC2)NC(=O)[C@H](C)NC(=O)[C@H](C)NC(=O)[C@H](Cc2c[nH]c3ccccc23)NC(=O)[C@H](Cc2ccc(O)cc2)NC(=O)[C@H](C)NC1=O)[C@@H](C)O [MP-895] (Ac-[Sar][Lys(N3)][βAla]ATF[R8]AYWAA[Cba][S5]AAA-NH2; staple 7-14) : 3.46

Entry "CC(=O)N[C@@H](CC(C)C)C(=O)N[C@H](C(=O)N[C@@H](Cc1ccccc1)C(=O)NC(C)(C)C(=O)N[C@@H](CCC(=O)O)C(=O)N[C@@H](Cc1ccc(O)cc1)C(=O)N[C@@H](Cc1c[nH]c2ccccc12)C(=O)N[C@@H](CCC(N)=O)C(=O)N[C@H](CC(C)C)C(=O)N[C@@H](CC1CCC1)C(=O)NC(C)(C)C(=O)N[C@@H](CO)C(=O)N[C@@H](C)C(=O)N[C@@H](C)C(N)=O)[C@@H](C)O" — recorded logD = 2.06

Summary for this compound, "CC(=O)N[C@@H](CCCCN=[N+]=[N-])C(=O)NCCC(=O)N[C@@H](CC(C)C)C(=O)N[C@H](C(=O)N[C@@H](Cc1ccccc1)C(=O)N[C@]1(C)CCCCCCC=CCCC[C@@](C)(C(=O)N[C@@H](CCC(=O)O)C(=O)N[C@@H](C)C(=O)N[C@@H](C)C(N)=O)NC(=O)[C@H](CC2CCC2)NC(=O)[C@H](CCC(N)=O)NC(=O)[C@H](C)NC(=O)[C@H](Cc2c[nH]c3ccccc23)NC(=O)[C@H](Cc2ccc(O)cc2)NC(=O)[C@H](CCC(=O)O)NC1=O)[C@@H](C)O" : logD is 2.5

----------
- test-details: Solubility assay (kinetic solubility, PBS pH 7)
- Type: physicochemical
- measurement-parameters: pH 7, aqueous buffer, kinetic from dmso stock, pH 7, PBS; read-out: Solubility
- Experimental: The standard reference solutions were prepared by diluting the 10 mM stock in 10:80:10 solution of acetonitrile:methanol:DMSO to 100 µM. The solubility value is calculated by the following equation: Solubility [µM] = (Peak area of sample/ Peak area of standard) (Standard concentration)
readout-kind: solubility kinetic (µM)
Only the number, expressed in µM, is required.

Lab book: solubility kinetic of CC(=O)N[C@H](CC(C)C)C(=O)N[C@H](C(=O)N[C@@H](Cc1ccccc1)C(=O)N[C@]1(C)CCCCCCC=CCCC[C@@](C)(C(=O)N[C@@H](CO)C(=O)N[C@H](C)C(=O)N[C@@H](C)C(N)=O)NC(=O)[C@H](CC2CCC2)NC(=O)[C@H](CC(C)C)NC(=O)[C@H](CCC(N)=O)NC(=O)[C@H](Cc2c[nH]c3ccccc23)NC(=O)[C@H](Cc2ccc(O)cc2)NC(=O)[C@H](CCC(=O)O)NC1=O)[C@@H](C)O [MP-7201] noted as 19

Briefly, solubility kinetic measured for CC(=O)N[C@@H](CO)C(=O)NCC(=O)N[C@@H](CO)C(=O)N[C@H](C(=O)N[C@@H](CO)C(=O)N[C@@H](Cc1ccccc1)C(=O)N[C@]1(C)CCCCCCC=CCCC[C@@](C)(C(N)=O)NC(=O)[C@H](CC(C)C)NC(=O)[C@H](CC(C)C)NC(=O)[C@H](C)NC(=O)[C@H](Cc2c[nH]c3ccccc23)NC(=O)[C@H](Cc2ccc(O)cc2)NC(=O)[C@H](CCC(=O)O)NC1=O)[C@@H](C)O [MP-654] : 23
